FYI, the data here is from ChEMBL document CHEMBL1149321.

Measured pKi (Sodium-dependent serotonin transporter (Homo sapiens, UniProt P31645))
Quick note: pKi values are minus log10 of concentrations in mol/L.

Worked examples follow.
Task: Can you look up pKi on Sodium-dependent serotonin transporter (Homo sapiens, UniProt P31645) for COC(=O)C1C2CCC(CC1c1ccc(/C=C\Br)cc1)N2 (stereo not drawn) ?
Result: 10.40

Task: Now the same for COC(=O)C1C2CCC(CC1c1ccc(I)cc1)N2 (stereo not drawn)
Result: 9.44

Task: Now the same for COC(=O)C1C2CCC(CC1c1ccc(C=C(Br)Br)cc1)N2 (stereo not drawn)
Result: 10.10

Task: Now the same for COC(=O)C1C(c2ccc(/C=C\I)cc2)CC2CCC1N2C (stereo not drawn)
Result: 9.96

Task: Now the same for COC(=O)C1C(c2ccc(C=C(Br)Br)cc2)CC2CCC1N2C (stereo not drawn)
Result: 8.87

Task: Now the same for CN1C2CCC1C(C(=O)Oc1ccccc1)C(c1ccc(Cl)cc1)C2 (stereo not drawn)
Result: 6.41

Task: Now the same for COC(=O)[C@@H]1C2CC[C@H](C[C@@H]1c1ccc(I)cc1)N2C
Result: 8.38

Note: attention shifts to another entry.
Task: Can you look up pKi on Sodium-dependent serotonin transporter (Homo sapiens, UniProt P31645) for COC(=O)C1C(c2ccc(/C=C\Br)cc2)CC2CCC1N2C (stereo not drawn) ?
Result: 10.10

----------
# assay-target: Sodium-dependent dopamine transporter (Homo sapiens)
# measurement-protocol: In vitro binding affinity against human dopamine transporter in dog kidney cell line by using [125I]RTI-55 as radioligand
# Assay type: cell-based
endpoint: log10(Ki) (log10 of the value in nM)
Heads up, the numbers here are log10 of Ki in nM units.

Worked examples follow.
Task: // returns reported log10(Ki) for input COC(=O)C1C(c2ccc(C=C(Br)Br)cc2)CC2CCC1N2C (stereo not drawn)
Result: 0.83

Task: Now the same for COC(=O)C1C2CCC(CC1c1ccc(/C=C\Br)cc1)N2 (stereo not drawn)
Result: 0.59

Task: Now the same for COC(=O)C1C(c2ccc(/C=C\Br)cc2)CC2CCC1N2C (stereo not drawn)
Result: 0.49

Next:
Task: // returns reported log10(Ki) for input COC(=O)[C@@H]1C2CC[C@H](C[C@@H]1c1ccc(I)cc1)N2C
Result: 0.11

Task: Now the same for COC(=O)C1C(c2ccc(/C=C\I)cc2)CC2CCC1N2C (stereo not drawn)
Result: 1.34

Task: Now the same for COC(=O)C1C2CCC(CC1c1ccc(/C=C\I)cc1)N2 (stereo not drawn)
Result: 0.54

Task: Now the same for COC(=O)C1C2CCC(CC1c1ccc(C=C(Br)Br)cc1)N2 (stereo not drawn)
Result: 0.75

Task: Now the same for COC(=O)C1C2CCC(CC1c1ccc(I)cc1)N2 (stereo not drawn)
Result: -0.16

----------
# assay-target: Sodium-dependent noradrenaline transporter (Homo sapiens)
# Sequence (P23975 whole entry): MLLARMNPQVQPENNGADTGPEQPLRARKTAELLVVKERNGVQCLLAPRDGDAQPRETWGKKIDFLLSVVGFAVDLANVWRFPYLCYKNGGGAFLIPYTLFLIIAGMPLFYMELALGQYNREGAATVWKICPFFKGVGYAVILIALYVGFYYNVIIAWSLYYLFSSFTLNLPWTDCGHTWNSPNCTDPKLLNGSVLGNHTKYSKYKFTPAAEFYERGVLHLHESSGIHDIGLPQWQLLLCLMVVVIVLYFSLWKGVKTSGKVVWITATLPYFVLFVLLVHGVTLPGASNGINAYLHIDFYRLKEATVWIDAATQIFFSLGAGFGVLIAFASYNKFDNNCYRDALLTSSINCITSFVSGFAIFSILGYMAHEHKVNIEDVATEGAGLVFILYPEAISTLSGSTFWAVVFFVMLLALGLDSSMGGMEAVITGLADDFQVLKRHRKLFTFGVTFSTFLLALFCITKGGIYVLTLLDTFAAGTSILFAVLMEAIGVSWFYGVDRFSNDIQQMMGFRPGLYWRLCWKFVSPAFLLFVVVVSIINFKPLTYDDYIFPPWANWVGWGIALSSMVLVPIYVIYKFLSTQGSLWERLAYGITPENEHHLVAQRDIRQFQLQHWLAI
# measurement-protocol: In vitro binding affinity against human norepinephrine transporter in human embryonic kidney cell line using [125I]RTI-55 as radioligand
# Format: cell-based
endpoint: Ki (nM)
The response must be a number in nM with no trailing unit.

Task: // returns reported Ki for input COC(=O)C1C2CCC(CC1c1ccc(/C=C\I)cc1)N2 (stereo unspecified)
Result: 24

----------
# assay-target: Sodium-dependent dopamine transporter (Homo sapiens, UniProt Q01959)
# Sequence (Q01959 whole entry): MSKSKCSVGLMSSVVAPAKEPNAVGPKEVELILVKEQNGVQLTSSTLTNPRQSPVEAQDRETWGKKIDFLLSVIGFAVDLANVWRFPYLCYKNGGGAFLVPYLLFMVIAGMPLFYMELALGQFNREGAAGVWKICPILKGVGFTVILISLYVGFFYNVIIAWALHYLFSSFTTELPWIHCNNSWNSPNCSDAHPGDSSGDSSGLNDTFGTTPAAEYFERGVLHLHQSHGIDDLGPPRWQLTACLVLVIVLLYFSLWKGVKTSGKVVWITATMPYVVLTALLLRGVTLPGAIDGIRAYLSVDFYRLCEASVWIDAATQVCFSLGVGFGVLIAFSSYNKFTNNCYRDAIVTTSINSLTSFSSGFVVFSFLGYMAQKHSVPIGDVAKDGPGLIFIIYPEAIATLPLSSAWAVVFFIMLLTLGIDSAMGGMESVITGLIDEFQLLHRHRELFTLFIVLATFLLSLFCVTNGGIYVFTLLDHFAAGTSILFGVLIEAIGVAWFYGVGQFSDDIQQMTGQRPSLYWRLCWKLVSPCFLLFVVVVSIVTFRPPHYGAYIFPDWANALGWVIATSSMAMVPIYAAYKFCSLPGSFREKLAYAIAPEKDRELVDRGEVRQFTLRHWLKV
# measurement-protocol: In vitro binding affinity against human dopamine transporter in dog kidney cell line by using [3H]WIN-35428 as the radiotracer
# Assay type: cell-based
endpoint: Ki (nM)
The response must be a number in nM with no trailing unit.

Task: // returns reported Ki for input CN1C2CCC1C(C(=O)Oc1ccccc1)C(c1ccc(Cl)cc1)C2 (stereo unspecified)
Result: 5.25

----------
# assay-target: Sodium-dependent dopamine transporter (Homo sapiens)
# measurement-protocol: In vitro binding affinity against human dopamine transporter in dog kidney cell line using [125I]RTI-55 as radioligand
# Assay type: cell-based
endpoint: Ki (nM)
The response must be a number in nM with no trailing unit.

Task: // returns reported Ki for input COC(=O)C1C2CCC(CC1c1ccc(/C=C\I)cc1)N2 (stereo unspecified)
Result: 15
